# protocol: NCI Yeast Anticancer Drug Screen. Data for the mec2-1 strain (AID 157)
# condition_notes: S. cerevisiae mec2-1 strain; at 50.0 µM unless noted
Compounds without any hit were thinned out: in the full panel of roughly 79,000, 15% have a hit. Active and inactive are the calls of the source. Cut-off read from the data, not from the text of the source: active = growth inhibition above about 70%; inactive = the rest.
Would you mind answering with one of these outcomes? True (active), False (inactive)

Illustrative cases are given below, each with its answer.
Cc1ccc(S(=O)(=O)N2CCC(CCl)N(S(=O)(=O)c3ccc(C)cc3)CC2CCl)cc1 (stereo unspecified) = False
CCNC(=O)c1ccccc1N=NN(C)C = False
COc1cc(/C=C/C(=O)c2c(=O)o[nH][n+]2-c2ccccc2)ccc1[O-] = False
O=c1[nH]c(=O)n(C2OC(CO)C(O)C2O)c2ccccc12 (stereo unspecified) = False
CC(C)N1C(=O)NC2C1NC(=O)N2C(C)C (stereo unspecified) (tested in a mixture with another compound) = False
COc1cc(/C=N/NC(=O)c2ccccc2NC(=O)c2ccccc2)ccc1O = False

Request: Each compound tested received a call. Report the one for `Cc1ccnc(NC(=O)CCc2ccccc2)c1` .
Response: False

Request: What classification did Cc1c(Cl)cc(Cl)c2c1C(=O)CC(C)O2 (stereo unspecified) end up with in this test?
Response: False

Request: For `CCN(CC)c1ccc2cc(C(=O)NCc3ccccc3)c(=N)oc2c1` , what call appears in the results of this test?
Response: False

Request: For `COc1ccc(CNC(=O)CC(C)=O)cc1` , what call appears in the results of this test?
Response: False

Request: # outcome recorded in this test, key = COC(=O)C(=O)C1(c2ccccc2)C(=O)C(c2ccccc2)=CC1O (stereo unspecified)
Response: False

Request: Could you please tell me the result logged for CC1(c2ccccc2)C(=O)c2ccccc2-c2ccccc21 (stereo unspecified) in this assay?
Response: False

* * *

Each entry below carries its reported growth inhibition.
# protocol: NCI Yeast Anticancer Drug Screen. Data for the sgs1 mgt1 strain (AID 161);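 note: 0% = growth of cultures given vehicle only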
# condition_notes: S. cerevisiae sgs1 mgt1 strain, stronger effect = higher value; at 50.0 µM unless noted
This is part of a sample that, as a whole, favours compounds with a hit. Of some 79,000 tested, about 15% had one in any assay.
State the answer as a number, implicitly in %.

Example entries begin here.
CN(C)C(=O)C(c1ccccc1)C(c1ccccc1)N(C)C=O (stereo not given) = 0.2
O=C(/C=C/c1ccc(O)c(O)c1)OC1CC(O)(C(=O)O)CC(O)C1O (stereo not given) (tested in a mixture with another compound) = -9.35
NC(N)=NS(=O)(=O)c1ccc(N=NC2=C(O)C(c3ccccc3)N(c3ccccc3)C2=O)cc1 (stereo not given) = 35.5
O=C1c2ccc3c4ccccc4n(-c4ccccc4)c3c2C(=O)N1c1ccc(Cl)cc1 = -26.2
CC(C)(C)SC(=S)SCC(=O)c1ccc(F)cc1 = 8.65

Request: Please look up its growth inhibition: O=C1OC(c2ccccc2)Cc2ccccc21 (stereo not given)
Response: -22.1

Request: Suppose we examine the compound `Nc1nc(-c2ccco2)cc(-c2ccco2)n1` ; what growth inhibition value has been reported?
Response: -18.8

Request: Could you share which growth inhibition value was measured for CC(C)(C1CCC([Si](C2CCCCC2)(C2CCCCC2)C2CCCCC2)CC1)[Si](C1CCCCC1)(C1CCCCC1)C1CCCCC1 (stereo not given) ?
Response: -14.4

Request: I'd like to know its growth inhibition. The compound in question is `COCCOC(=O)OCCOC`
Response: 4.75

Request: Please look up its growth inhibition: `O=C1c2ccccc2C(=O)N1/N=[N+](\[O-])c1ccccc1`
Response: 17.2

* * *

# protocol: NCI Yeast Anticancer Drug Screen. Data for the sgs1 mgt1 strain (AID 161);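 note: 0% = growth of cultures given vehicle only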
# condition_notes: S. cerevisiae sgs1 mgt1 strain, stronger effect = higher value; at 50.0 µM unless noted
This is part of a sample that, as a whole, favours compounds with a hit. Of some 79,000 tested, about 15% had one in any assay.
# growth inhibition annotations
Record the value in %, omitting the unit from your answer.

Some solved entries appear below for comparison.
Cc1nc(CO)c(-c2ccc([N+](=O)[O-])cc2)o1 = -8.75
COc1ccc(-c2oc(=O)c3ccccc3c2-c2ccccc2)cc1 = 5.35
CCN(CC)CCCCCCNc1cc(OC)c(OC)c2c(C)ccnc12 = 5.6
C[N+](C)(C)CCc1ccc(Cl)cc1 = 9.7
CN(Cc1cnc2nc(N)nc(N)c2n1)c1ccc(C(=O)NC(CCC(=O)OCc2c(Cl)cccc2Cl)C(=O)OCc2c(Cl)cccc2Cl)cc1 (stereo unspecified) = 28.5

Continue with the compound presented below.
Request: GET /values?readout=growth inhibition&item= `COc1ccc(C)cc1NC(=O)OCCCl`
Response: 2.65

* * *

# protocol: NCI Yeast Anticancer Drug Screen. Data for the rad50 strain (AID 155);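 note: 0% = growth of vehicle-only cultures of the same strain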
# condition_notes: S. cerevisiae rad50 strain growth inhibition, stronger effect = higher value; at 50.0 µM unless noted
About 79,000 compounds went through this panel and 15% of them were active in at least one assay; those are over-represented in the sample as a whole.
property: growth inhibition (%)
# value in %; strip the unit string

Some solved entries appear below for comparison.
CC1(C)N=C(C(N)=O)c2ncn(Cc3ccccc3)c2N1 = -29
Cc1ccc(C)c(CCCCS(=O)(=O)O)c1 = -27.9
N#CCSc1ncnc2nc[nH]c12 = 4.25
Cc1c([N+](=O)[O-])cc(C(C)(C)C)c(OC(=O)c2ccccc2)c1[N+](=O)[O-] = 41.5
CSc1nc(N)c2cnn(Cc3ccccc3)c2n1 = 28.4
COC(=O)/C=C/c1cccnc1 = -16.4
Cc1nccn1C(/C(=N/O)c1ccccc1)c1ccccc1 (configuration not stated) = -0.55
CC(=O)NC(CCCCNC(=O)N(CCCl)N=O)C(=O)NCc1ccccc1 (configuration not stated) = 1.2

Request: Fill in: growth inhibition of CN(C)C1=CC(=S)NC(c2ccccc2)C1 (configuration not stated) is ___
Response: -2.35

Request: Reported growth inhibition, molecule `COC(=O)c1ccc(N=NN(C)CN=[N+]=[N-])cc1` : ____
Response: 13.3

Request: Request the reported growth inhibition associated with `NNC(=O)CCn1[nH]c(=O)c(Cl)c(Cl)c1=O`
Response: 13.9

Request: Which growth inhibition value belongs to `C/C(CC(=O)Nc1ccc(Cc2ccc(Br)cc2)cc1)=N/Nc1ccc([N+](=O)[O-])cc1[N+](=O)[O-]` ?
Response: 25.1

* * *

# protocol: NCI Yeast Anticancer Drug Screen. Data for the mlh1 rad18 strain (AID 175)
# condition_notes: S. cerevisiae mlh1 rad18 strain growth inhibition; at 50.0 µM unless noted
# Experimental: Growth inhibition of yeast strains with defined genetic alterations is measured as a screen for potential anti-cancer activity. Selected strains with alterations in DNA damage repair or cell cycle control were exposed to compounds and growth inhibition was measured relative to vehicle treated controls. The strain used in this assay is mlh1 rad18
The panel holds about 79,000 compounds, 15% with a hit somewhere; the sample as a whole holds those more often. Calls of active or inactive are those of the source. No stated cut-off is given here; in the data, active means growth inhibition above about 70%; inactive means the rest.
Please reply with one of these outcomes: active, inactive

Cc1cc(C)c(-c2c(C)cc(C)c(C(=O)c3ccc([N+](=O)[O-])cc3)c2C)c(C)c1C(=O)c1ccc([N+](=O)[O-])cc1 = inactive
CCCCCCCCCCCCC(C)O (stereo not given) = inactive
CC(=O)NC1C(OCc2ccccc2)OC(CO)C(O)C1OC(C)C(=O)N[C@@H](C)C(=O)N[C@H](CCC(=O)OCCNc1c2ccccc2nc2cccc([N+](=O)[O-])c12)C(N)=O (stereo not given in full) = active
Nc1ncc(C(=O)O)s1 = inactive
COc1ccccc1NC(=O)C1=C(C)NC(C)=C(C(=O)Nc2ccccc2OC)C1c1ccccc1F = inactive

Request: Could you check what this test reported for `CCCCCCCCCCCCCCCCCc1c(Cl)c(Cl)c(Cl)c(Cl)c1Cl` ?
Response: inactive

Request: Would you mind telling me which call this test gave O=c1[nH]c2ccc([N+](=O)[O-])cc2nc1/C(=N/Nc1ccccc1)C(O)c1ccco1 (stereo not given) ?
Response: inactive

Request: Test call for this molecule, please: `CN(C)Cc1ccccc1`
Response: inactive

Request: Dear all, I need the recorded test outcome for N#CC1CSCC1=O (stereo not given) , thank you.
Response: inactive

Request: Dear all, I need the recorded test outcome for `O=c1cc2ccccc2nn1-c1ccccc1Cl` , thank you.
Response: inactive

* * *

# protocol: NCI Yeast Anticancer Drug Screen. Data for the mec2-1 strain (AID 157)
# condition_notes: S. cerevisiae mec2-1 strain, stronger effect = higher value; at 50.0 µM unless noted
About 79,000 compounds went through this panel and 15% of them were active in at least one assay; those are over-represented in the sample as a whole.
property: growth inhibition (%)
The figure you give is taken to be in %; do not add the unit.

COC1OC(COC(c2ccccc2)(c2ccccc2)c2ccccc2)C(O)C(O)C1O (stereo not drawn) = 47
CCCCCCOS(=O)(=O)c1ccc(C)cc1 = -9.95
Nc1c(I)cc(I)c(C(=O)O)c1I = -31.9

Field: next molecule
Request: // lookup growth inhibition for Cn1c2c(c(=O)c3cc(O)ccc31)CC(O)C(C)(C)O2 (stereo not drawn)
Response: -10.8
